systemTested: BACE1 enzyme (soluble, truncated BACE enzyme, BACE1deltaTM96His) (Homo sapiens)
Construct: soluble, truncated BACE enzyme (BACE1deltaTM96His); His; made in house
Sequence (P56817 46-457): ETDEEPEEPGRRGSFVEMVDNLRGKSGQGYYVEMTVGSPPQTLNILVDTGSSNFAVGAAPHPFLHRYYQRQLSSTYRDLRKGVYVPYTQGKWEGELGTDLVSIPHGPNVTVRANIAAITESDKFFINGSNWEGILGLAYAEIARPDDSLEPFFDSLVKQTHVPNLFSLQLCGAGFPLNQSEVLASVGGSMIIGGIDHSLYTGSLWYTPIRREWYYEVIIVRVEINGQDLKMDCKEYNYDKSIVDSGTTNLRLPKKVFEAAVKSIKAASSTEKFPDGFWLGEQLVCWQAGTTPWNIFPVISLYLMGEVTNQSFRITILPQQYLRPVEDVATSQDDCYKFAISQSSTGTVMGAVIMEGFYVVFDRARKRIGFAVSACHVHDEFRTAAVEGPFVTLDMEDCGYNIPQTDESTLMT
assayMethodText: BACE1 Fluorescent Polarization (FP) Assay
Type: biochemical
runParameters: 11-point curve; geometric mean of 2-4 IC50 determinations unless footnoted (^2: 5-6 determinations; ^4: single determination); read-out: BACE activity, 11-point curve, IC50
Counter-ions that a name gives are not always drawn.
measuredEndpoint: IC50 (µM)

Worked cases, IC50 given:
compound: CC(C)Oc1cccc(CN2CC[C@@]3(C[C@@H]2C)C(=O)C(C)(C)S(=O)(=O)N3c2cccc(F)c2)c1 [Example 64, hydrochloride salt]
dataValue: 25.7
--
compound: C[C@H]1C[C@]2(CCN1Cc1ccc(O)c(C3CCC3)c1)CCS(=O)(=O)N2c1ccccn1
dataValue: 4.19
--
compound: C[C@H]1C[C@@]2(C=CS(=O)(=O)N2c2cccc(F)c2)CCN1Cc1scnc1CC1CC1 [Example 24, hydrochloride salt]
dataValue: 0.353

a. Cc1ncsc1-c1ocnc1CN1CC[C@]2(CCS(=O)(=O)N2c2cccc(F)c2)C[C@@H]1C [Example 59, hydrochloride salt]
b. C[C@H]1C[C@@]2(C=CS(=O)(=O)N2c2cccc(F)c2)CCN1Cc1ccc2[nH]ccc2c1
c. COc1ccc2[nH]c(CN3CC[C@]4(CCS(=O)(=O)N4c4cccc(F)c4)C[C@@H]3C)cc2c1
d. C[C@H]1C[C@@]2(C=CS(=O)(=O)N2c2cccc(F)c2)CCN1Cc1ncoc1-c1cncnc1 [Example 23, hydrochloride salt]
e. Cc1ccncc1-c1cccc(CN2CC[C@]3(C=CS(=O)(=O)N3c3cccc(F)c3)C[C@@H]2C)c1 [Example 39, hydrochloride salt]
Ask | Put the items in sequence by IC50, from largest down. Form field (ranking): labels in requested order.
Reply | a, c, b, d, e

I. CC(C)Oc1cccc(CN2CC[C@]3(C=CS(=O)(=O)N3c3ccc(F)c(F)c3)C[C@@H]2C)c1 [Example 68, hydrochloride salt]
II. C[C@H]1C[C@@]2(C=CS(=O)(=O)N2c2cccc(F)c2)CCN1Cc1ncoc1-c1cncs1
Ask | Could you check which of I and II has a smaller value for IC50? Give the chosen item's label as your response.
Reply | II
(II: 3 µM, I: 5.79 µM)

A. C[C@H]1C[C@@]2(C=CS(=O)(=O)N2c2cccc(F)c2)CCN1Cc1ncoc1C1CCCO1 (stereo partly shown)
B. Cc1ccncc1-c1cccc(CN2CC[C@]3(CCS(=O)(=O)N3c3cccc(F)c3)C[C@@H]2C)c1 [Example 55, hydrochloride salt]
Ask | Sort A and B by IC50 descending and give the first. Output the label that corresponds to your choice.
Reply | A

1. Cc1ncsc1-c1ocnc1CN1CC[C@]2(C=CS(=O)(=O)N2c2cccc(F)c2)C[C@@H]1C
2. Cc1cncc(-c2ocnc2CN2CC[C@]3(C=CS(=O)(=O)N3c3cccc(F)c3)C[C@@H]2C)c1
Ask | Select one. Lower IC50: 1 or 2 To answer, give the label that identifies your chosen option.
Reply | 2
(2: 2.78 µM, 1: 6.29 µM)

A. C[C@H]1C[C@@]2(C=CS(=O)(=O)N2c2cccc(F)c2)CCN1Cc1ncoc1-c1cccs1 [Example 34, hydrochloride salt]
B. CC(C)Oc1cccc(CN2CC[C@@]3(C[C@@H]2C)C(O)CS(=O)(=O)N3c2cccc(F)c2)c1 (stereo partly shown)
C. C[C@H]1C[C@@]2(C=CS(=O)(=O)N2c2cccc(F)c2)CCN1Cc1scnc1-c1cncc(F)c1 [Example 44, hydrochloride salt]
D. CC(C)Oc1cccc(CN2CC[C@]3(C=CS(=O)(=O)N3c3cccc(F)c3)C[C@@H]2C)c1
E. CC(C)Oc1cc(CN2CC[C@]3(CCS(=O)(=O)N3c3cccc(F)c3)C[C@@H]2C)ncc1O
Ask | Ordering: ascending IC50. Answer by listing the labels in the requested order.
Reply | E, D, B, A, C

A. C[C@H]1CCO[C@H]1c1ocnc1CN1CC[C@]2(C=CS(=O)(=O)N2c2cccc(F)c2)C[C@@H]1C (relative stereo)
B. C[C@H]1C[C@]2(CCN1Cc1ccc(O)c(C3CCCO3)c1)CCS(=O)(=O)N2c1cccc(F)c1 (single isomer, unassigned) [Example 46]
Ask | Quick one: lower IC50, A or B ? Your answer should be the label of the entry you select.
Reply | B

a. Cc1cccnc1-c1cc(CN2CC[C@]3(C=CS(=O)(=O)N3c3cccc(F)c3)C[C@@H]2C)ccc1F
b. C[C@H]1C[C@@]2(C=CS(=O)(=O)N2c2cccc(F)c2)CCN1Cc1ncoc1C1CCOC1 (stereo partly shown)
Ask | Dear colleague, could you let me know whether a or b has the lower recorded IC50? Thanks. Kindly state the label of the option you pick.
Reply | b

A. C[C@H]1C[C@]2(CCN1Cc1ccc(O)c(C3CCC3)c1)CCS(=O)(=O)N2c1cnccn1
B. C[C@H]1C[C@]2(CCN1Cc1ncoc1-c1cncs1)CCS(=O)(=O)N2c1cccc(F)c1 [Example 60, hydrochloride salt]
C. Cc1csnc1-c1cc(CN2CC[C@@]3(C[C@@H]2C)C(=O)CS(=O)(=O)N3c2cccc(F)c2)ccc1O
Ask | Arrange by IC50, high to low. State the ranking by listing the labels in the requested order.
Reply | B, A, C

A. Cc1ccsc1-c1ocnc1CN1CC[C@]2(C=CS(=O)(=O)N2c2cccc(F)c2)C[C@@H]1C
B. CC(C)Oc1cccc(CN2CC[C@@]3(C[C@@H]2C)C(=O)CS(=O)(=O)N3c2cccc(F)c2)c1
Ask | Please choose the item with the lower IC50 value from this pair: A and B Answer by quoting the chosen item's label.
Reply | A
(A: 2.84 µM, B: 5.72 µM)

---

systemTested: BACE1 enzyme (soluble, truncated BACE enzyme, BACE1deltaTM96His) (Homo sapiens)
Construct: soluble, truncated BACE enzyme (BACE1deltaTM96His); His; made in house
assayMethodText: BACE1 Fluorescent Polarization (FP) Assay
Format: biochemical
runParameters: 8-point curve; geometric mean of 2-4 IC50 determinations unless footnoted (^2: 5-6 determinations; ^4: single determination); read-out: BACE activity, 8-point curve, IC50
pIC50: −log10 of the molar value. Where a name gives a salt, the structure may show the parent alone.
measuredEndpoint: pIC50

compound: C[C@H]1C[C@@]2(C=CS(=O)(=O)N2c2cccc(F)c2)CCN1Cc1ccc(O)c(OC2CC2)c1 [Example 13, hydrochloride salt]
measuredEndpoint: pIC50
dataValue: 7.74
//
compound: CC(C)Oc1cc(CN2CC[C@]3(CCS(=O)(=O)N3c3cccc(F)c3)C[C@@H]2C)ccc1O
measuredEndpoint: pIC50
dataValue: 7.46
//
compound: C[C@H]1C[C@@]2(C=CS(=O)(=O)N2c2cccc(F)c2)CCN1Cc1scnc1CC1CCC1
measuredEndpoint: pIC50
dataValue: 6.51
//
compound: CCc1ccccc1-c1cc(CN2CC[C@]3(CCS(=O)(=O)N3c3cccc(F)c3)C[C@@H]2C)ccc1O
measuredEndpoint: pIC50
dataValue: 6.91
//
compound: C[C@H]1C[C@]2(CCN1Cc1ccc(O)c(C3CCCO3)c1)CCS(=O)(=O)N2c1cccc(F)c1 (single isomer, unassigned) [Example 47]
measuredEndpoint: pIC50
dataValue: 7.33
//
compound: Cc1ncsc1-c1ocnc1CN1CC[C@]2(C=CS(=O)(=O)N2c2cccc(F)c2)C[C@@H]1C
measuredEndpoint: pIC50
dataValue: 5.60
//
compound: C[C@H]1C[C@@]2(C=CS(=O)(=O)N2c2cccc(F)c2)CCN1Cc1ccc(O)c(F)c1 [Example 18, hydrochloride salt]
measuredEndpoint: pIC50
dataValue: 8.73
//
compound: C[C@H]1C[C@@]2(C=CS(=O)(=O)N2c2cccc(F)c2)CCN1Cc1ncoc1-c1cncnc1 [Example 23, hydrochloride salt]
measuredEndpoint: pIC50
dataValue: 6.37

a. C[C@H]1C[C@@]2(C=CS(=O)(=O)N2c2cccc(F)c2)CCN1Cc1ccc(O)c(C2CCCO2)c1 (single isomer, unassigned) [Example 30]
b. C[C@H]1C[C@@]2(C=CS(=O)(=O)N2c2cccc(F)c2)CCN1Cc1ncoc1-c1cncs1
Ask | Please indicate which has the smaller reported pIC50: a , or b . Answer = label.
Reply | b

P. Cc1ccccc1-c1cccc(CN2CC[C@]3(CCS(=O)(=O)N3c3cccc(F)c3)C[C@@H]2C)c1 [Example 52, formate salt]
Q. C[C@H]1C[C@@]2(C=CS(=O)(=O)N2c2cccc(F)c2)CCN1Cc1scnc1-c1cncnc1
Ask | Compare P and Q and name the one whose reported pIC50 is smaller. Indicate which entry you chose by stating its label.
Reply | Q
(Q: 6.01, P: 7.39)

---

systemTested: BACE1 enzyme (soluble, truncated BACE enzyme, BACE1deltaTM96His) (Homo sapiens)
Construct: soluble, truncated BACE enzyme (BACE1deltaTM96His); His; made in house
assayMethodText: BACE1 Fluorescent Polarization (FP) Assay
Format: biochemical
runParameters: 8-point curve; geometric mean of 2-4 IC50 determinations unless footnoted (^2: 5-6 determinations; ^4: single determination); read-out: BACE activity, 8-point curve, IC50
pIC50: −log10 of the molar value. Counter-ions that a name gives are not always drawn.
measuredEndpoint: pIC50

molecule: COc1ccc2[nH]c(CN3CC[C@]4(CCS(=O)(=O)N4c4cccc(F)c4)C[C@@H]3C)cc2c1 [Example 53]
pIC50: 5.64

molecule: C[C@H]1C[C@@]2(C=CS(=O)(=O)N2c2cccc(F)c2)CCN1Cc1scnc1-c1cccnc1 [Example 48]
pIC50: 5.25

molecule: Cc1cncc(-c2ncsc2CN2CC[C@]3(C=CS(=O)(=O)N3c3cccc(F)c3)C[C@@H]2C)c1 [Example 49, hydrochloride salt]
pIC50: 5.17

molecule: C[C@H]1C[C@@]2(C=CS(=O)(=O)N2c2cccc(F)c2)CCN1Cc1ccc(O)c(C(F)(F)F)c1 [Example 16, hydrochloride salt]
pIC50: 6.49

molecule: C[C@H]1C[C@@]2(C=CS(=O)(=O)N2c2cccc(F)c2)CCN1Cc1ncoc1C1CCCO1 (stereo partly shown) [Example 70]
pIC50: 5.59

molecule: CC(C)Oc1cccc(CN2CC[C@]3(CCS(=O)(=O)N3c3cccc(F)c3)C[C@@H]2C)c1 [Example 28]
pIC50: 6.28

1. C[C@H]1C[C@@]2(C=CS(=O)(=O)N2c2cccc(F)c2)CCN1Cc1ccc2[nH]ccc2c1 [Example 41]
2. CC(C)Oc1cc(CN2CC[C@]3(CCS(=O)(=O)N3c3cccc(F)c3)C[C@@H]2C)ncc1O [Example 3]
3. COC1=CS(=O)(=O)N(c2cccc(F)c2)[C@@]12CCN(Cc1cccc(OC(C)C)c1)[C@@H](C)C2 [Example 63]
4. C[C@H]1C[C@@]2(C=CS(=O)(=O)N2c2cccc(F)c2)CCN1Cc1scnc1-c1cncc(F)c1 [Example 44, hydrochloride salt]
Ask | List by increasing pIC50. Give the order by naming the labels one after another as requested.
Reply | 3, 4, 1, 2
(3: 5.24, 4: 5.51, 1: 6.15, 2: 7.09)
